- study_target: human ether-à-go-go-related gene (hERG) potassium channel (human, UniProt Q12809);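 also: peak tail current of the secondary pulse compared with the same well before compound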
- Sequence (Q12809 whole entry, looked up): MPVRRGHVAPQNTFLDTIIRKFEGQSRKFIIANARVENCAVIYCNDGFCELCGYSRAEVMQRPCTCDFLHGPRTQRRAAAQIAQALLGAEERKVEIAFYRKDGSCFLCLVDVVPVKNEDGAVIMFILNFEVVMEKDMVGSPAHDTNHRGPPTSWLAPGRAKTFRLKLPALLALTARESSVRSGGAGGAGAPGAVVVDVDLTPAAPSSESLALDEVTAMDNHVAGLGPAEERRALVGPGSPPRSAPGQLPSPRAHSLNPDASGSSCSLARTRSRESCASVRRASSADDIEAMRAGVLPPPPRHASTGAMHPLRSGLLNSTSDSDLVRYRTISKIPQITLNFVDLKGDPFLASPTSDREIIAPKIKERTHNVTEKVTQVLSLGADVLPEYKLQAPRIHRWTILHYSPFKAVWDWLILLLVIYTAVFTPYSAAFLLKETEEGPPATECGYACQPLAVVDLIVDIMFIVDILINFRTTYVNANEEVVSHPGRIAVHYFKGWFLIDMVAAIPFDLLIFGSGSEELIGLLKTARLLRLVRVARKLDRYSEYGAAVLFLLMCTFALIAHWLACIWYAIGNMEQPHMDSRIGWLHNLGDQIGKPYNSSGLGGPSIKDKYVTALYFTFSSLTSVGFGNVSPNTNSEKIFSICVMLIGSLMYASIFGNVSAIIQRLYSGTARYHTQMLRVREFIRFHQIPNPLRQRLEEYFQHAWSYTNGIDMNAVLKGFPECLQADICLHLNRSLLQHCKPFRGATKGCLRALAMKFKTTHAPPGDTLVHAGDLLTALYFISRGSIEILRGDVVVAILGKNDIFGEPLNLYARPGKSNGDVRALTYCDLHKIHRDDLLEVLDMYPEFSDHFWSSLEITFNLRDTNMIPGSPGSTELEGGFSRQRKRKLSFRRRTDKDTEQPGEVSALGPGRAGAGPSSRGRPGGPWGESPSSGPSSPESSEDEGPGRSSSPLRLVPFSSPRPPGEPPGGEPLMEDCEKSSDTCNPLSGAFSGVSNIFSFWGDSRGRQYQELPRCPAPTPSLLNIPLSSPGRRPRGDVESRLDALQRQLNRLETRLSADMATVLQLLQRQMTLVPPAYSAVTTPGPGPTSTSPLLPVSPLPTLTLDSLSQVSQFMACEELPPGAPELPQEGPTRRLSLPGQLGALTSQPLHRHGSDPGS
- experiment: primary screen, population patch clamp on CHO cells stably expressing hERG; higher = less effect of the substance
Screen size: about 310,000 compounds; about 14,000 (4.5%) showed an effect of 50% or more. The effect is printed as a negative number. What follows is part of a selection rich in strong results, with near analogues and random picks from the rest.
Listed compounds paired with reported hERG current change (%, negative = inhibition) at 10uM
Provide only the numeric value, understood in %.

# annotated cases, reported hERG current change (%, negative = inhibition) at 10uM shown
compound	unit_of_measurement	measured_result
Br.COc1ccc(-c2nc3n(c2C)CCC3)cc1	%	-6.52
O=C(CC1S/C(=N/N=C/c2cccs2)NC1=O)Nc1ccc(Cl)cc1 (centres unmarked)	%	-3.86

stdin: Data request, read-out hERG current change (%, negative = inhibition) at 10uM, for COc1ccc(CC(=O)N2CCN(c3ccc(F)cc3)CC2)cc1
stdout: 1.52

stdin: Data request, read-out hERG current change (%, negative = inhibition) at 10uM, for Cc1ccc2nsnc2c1NC(=O)c1ccc([N+](=O)[O-])o1
stdout: 13.1

stdin: Data request, read-out hERG current change (%, negative = inhibition) at 10uM, for COc1ccc(CNC(=O)C2CCN(C(=O)Cc3ccccc3)CC2)cc1
stdout: -13.5
